Values from ChEMBL document CHEMBL2331079

- System: Serratia plymuthica
- assayMethodText: Antibacterial activity against Serratia plymuthica C48 by paper disk diffusion method
- Assay type: functional
Kindly supply the reported MIC values for the records listed here.

Recorded MIC of O=C(O)[C@@H]1C=C[C@@H]2C[C@H]3[C@H](Cc4ccc5c(c4)OCO5)[C@H]4C=C[C@@H]1[C@@H]2[C@H]43 , please.
> 50 µg/mL

Recorded MIC of CC1(C)S[C@@H]2[C@H](NC(=O)[C@H](N)c3ccccc3)C(=O)N2[C@H]1C(=O)O , please.
20 µg/mL

Recorded MIC of CCCCCC[C@@H]1[C@H]2C=C[C@H]3C(C(=O)O)=C[C@H](O)[C@@H]4C[C@@H]1[C@@H]2[C@H]43 , please.
> 50 µg/mL

Recorded MIC of CN1CCN(c2cc3c(cc2F)c(=O)c(C(=O)O)cn3-c2ccc(F)cc2)CC1 , please.
20 µg/mL

Recorded MIC of CCCCCC[C@@H]1[C@H]2C=C[C@H]3C(C(=O)O)=C[C@@H](O)[C@@H]4C[C@@H]1[C@@H]2[C@H]43 , please.
> 50 µg/mL

Recorded MIC of O=C(O)C1=CC(=O)[C@@H]2C[C@H]3[C@H](Cc4ccc5c(c4)OCO5)[C@H]4C=C[C@@H]1[C@@H]2[C@H]43 , please.
> 50 µg/mL

Recorded MIC of CCCCCC[C@@H]1[C@H]2C=C[C@@H]3[C@@H]4[C@H]2[C@H]1C[C@H]4C=C[C@H]3C(=O)O , please.
> 50 µg/mL
